Test: In vivo biodistribution in mice
Set-up: species or system normal CD-1 male mice
Settings: iv, 60 min (1 hr) post injection
Consider the following compounds and their measured Biodistribution: Spleen readings.
Just the number in % dose/g, nothing appended.

{"columns": ["COMPOUND", "OUTPUT UNIT", "RECORDED MEASUREMENT"],
 "data": [
  ["O=C([O-])CN(CCN(CC(=O)[O-])Cc1cc(CCC(=O)O)ccc1[O-])Cc1cc(CCC(=O)O)ccc1[O-].[68Ga+3] [[^68Ga]HBED-CC, reference compound]", "% dose/g", 0.12]
]}

Now consider a different compound.
Fill blank: measured Biodistribution: Spleen of the compound O=C([O-])CN(CCN(CC(=O)[O-])Cc1cc(CCC(=O)NC(P(=O)(O)O)P(=O)(O)O)ccc1[O-])Cc1cc(CCC(=O)NCCCNC(=O)CCc2ccc(O)c(CN(CCN(CC(=O)O)Cc3cc(CCC(=O)NC(P(=O)(O)O)P(=O)(O)O)ccc3O)CC(=O)O)c2)ccc1[O-].[68Ga+3] [[^68Ga]3] is ____.
10.3

* * *

Experiment: In vitro binding to hydroxyapatite
Conditions: 20 mg hydroxyapatite in saline, 10 min at room temperature
METRIC: Hydroxyapatite Binding (%)
Just the number in %, nothing appended.

Answered examples (5):
{"columns": ["MOLECULE", "Hydroxyapatite Binding (%)"],
 "data": [
  ["O=C([O-])CN(CCN(CC(=O)[O-])Cc1cc(CCC(=O)NC(P(=O)(O)O)P(=O)(O)O)ccc1[O-])Cc1cc(CCC(=O)NCCCNC(=O)CCc2ccc(O)c(CN(CCN(CC(=O)O)Cc3cc(CCC(=O)NC(P(=O)(O)O)P(=O)(O)O)ccc3O)CC(=O)O)c2)ccc1[O-].[68Ga+3] [[^68Ga]3]", 95.8],
  ["O=C([O-])CN(CCN(CC(=O)[O-])Cc1cc(CCC(=O)NC(P(=O)(O)O)P(=O)(O)O)ccc1[O-])Cc1cc(CCC(=O)NCCCCCC(=O)NCCCC[C@H](NC(=O)N[C@@H](CCC(=O)O)C(=O)O)C(=O)O)ccc1[O-].[68Ga+3] [[^68Ga]1g]", 88.0],
  ["C[C@H](NC(=O)CCc1ccc([O-])c(CN(CCN(CC(=O)[O-])Cc2cc(CCC(=O)NC(P(=O)(O)O)P(=O)(O)O)ccc2[O-])CC(=O)[O-])c1)C(=O)O.[68Ga+3] [[^68Ga]1d]", 95.1],
  ["O=C(O)CN1CCN(CC(=O)O)CCN(CC(=O)NC(P(=O)(O)O)P(=O)(O)O)CCN(CC(=O)O)CC1.[68Ga] [[^68Ga]BPAMD, reference compound]", 90.6],
  ["O=C([O-])CN(CCN(CC(=O)[O-])Cc1cc(CCC(=O)N[C@@H](CCC(=O)O)C(=O)O)ccc1[O-])Cc1cc(CCC(=O)NC(P(=O)(O)O)P(=O)(O)O)ccc1[O-].[68Ga+3] [[^68Ga]1f]", 96.4]
]}

Now consider a different molecule.
Fill blank: measured Hydroxyapatite Binding (%) of the molecule O=C([O-])CN(CCN(CC(=O)[O-])Cc1cc(CCC(=O)NC(P(=O)(O)O)P(=O)(O)O)ccc1[O-])Cc1cc(CCC(=O)O)ccc1[O-].[68Ga+3] [[^68Ga]1a] is ____.
92.3

* * *

Consider the following compounds and their measured Biodistribution: Muscle readings.
Test: In vivo biodistribution in mice
Set-up: species or system normal CD-1 male mice
Settings: iv, 60 min (1 hr) post injection
Just the number in % dose/g, nothing appended.

{"columns": ["COMPOUND", "METRIC", "RECORDED MEASUREMENT"],
 "data": [
  ["[18F-].[Na+] [[^18F]NaF, reference compound]", "Biodistribution: Muscle", 0.09],
  ["O=C([O-])CN(CCN(CC(=O)[O-])Cc1cc(CCC(=O)O)ccc1[O-])Cc1cc(CCC(=O)O)ccc1[O-].[68Ga+3] [[^68Ga]HBED-CC, reference compound]", "Biodistribution: Muscle", 0.11],
  ["O=C([O-])CN(CCN(CC(=O)[O-])Cc1cc(CCC(=O)NC(P(=O)(O)O)P(=O)(O)O)ccc1[O-])Cc1cc(CCC(=O)NCC(=O)O)ccc1[O-].[68Ga+3] [[^68Ga]1c]", "Biodistribution: Muscle", 0.14]
]}

Now consider a different compound.
Fill blank: measured Biodistribution: Muscle of the compound O=C(O)CN1CCN(CC(=O)O)CCN(CC(=O)NC(P(=O)(O)O)P(=O)(O)O)CCN(CC(=O)O)CC1.[68Ga] [[^68Ga]BPAMD, reference compound] is ____.
0.31

* * *

Test: In vivo biodistribution in mice
Parameters: species or system normal CD-1 male mice
Conditions: iv, 30 min (0.5 hr) post injection
METRIC: Biodistribution: Blood (% dose/g)
Just the number in % dose/g, nothing appended.

{"columns": ["MOLECULE", "RECORDED MEASUREMENT"],
 "data": [
  ["O=C([O-])CN(CCN(CC(=O)[O-])Cc1cc(CCC(=O)N[C@@H](CC(=O)O)C(=O)O)ccc1[O-])Cc1cc(CCC(=O)NC(P(=O)(O)O)P(=O)(O)O)ccc1[O-].[68Ga+3] [[^68Ga]1e]", 0.57]
]}

Fill blank: measured Biodistribution: Blood of the molecule O=C([O-])CN(CCN(CC(=O)[O-])Cc1cc(CCC(=O)O)ccc1[O-])Cc1cc(CCC(=O)O)ccc1[O-].[68Ga+3] [[^68Ga]HBED-CC, reference compound] is ____.
0.83

Same for O=C([O-])CN(CCN(CC(=O)[O-])Cc1cc(CCC(=O)NC(P(=O)(O)O)P(=O)(O)O)ccc1[O-])Cc1cc(CCC(=O)NCCCCCC(=O)NCCCC[C@H](NC(=O)N[C@@H](CCC(=O)O)C(=O)O)C(=O)O)ccc1[O-].[68Ga+3] [[^68Ga]1g]
0.56

Same for O=C(O)CN1CCN(CC(=O)O)CCN(CC(=O)NC(P(=O)(O)O)P(=O)(O)O)CCN(CC(=O)O)CC1.[68Ga] [[^68Ga]BPAMD, reference compound]
1.02

* * *

Consider the following molecules and their measured Biodistribution: Skin readings.
Assay: In vivo biodistribution in mice
Parameters: species or system normal CD-1 male mice
Conditions: iv, 60 min (1 hr) post injection

Answered examples (3):
{"columns": ["MOLECULE", "METRIC", "RECORDED MEASUREMENT"],
 "data": [
  ["O=C([O-])CN(CCN(CC(=O)[O-])Cc1cc(CCC(=O)N[C@@H](CCC(=O)O)C(=O)O)ccc1[O-])Cc1cc(CCC(=O)NC(P(=O)(O)O)P(=O)(O)O)ccc1[O-].[68Ga+3] [[^68Ga]1f]", "Biodistribution: Skin", "0.15 ± 0.01 % dose/g"],
  ["O=C([O-])CN(CCN(CC(=O)[O-])Cc1cc(CCC(=O)NC(P(=O)(O)O)P(=O)(O)O)ccc1[O-])Cc1cc(CCC(=O)NCCCCCC(=O)NCCCC[C@H](NC(=O)N[C@@H](CCC(=O)O)C(=O)O)C(=O)O)ccc1[O-].[68Ga+3] [[^68Ga]1g]", "Biodistribution: Skin", "0.42 ± 0.06 % dose/g"],
  ["[18F-].[Na+] [[^18F]NaF, reference compound]", "Biodistribution: Skin", "0.11 ± 0.02 % dose/g"]
]}

Fill blank: measured Biodistribution: Skin of the molecule O=C([O-])CN(CCN(CC(=O)[O-])Cc1cc(CCC(=O)NC(P(=O)(O)O)P(=O)(O)O)ccc1[O-])Cc1cc(CCC(=O)NCC(=O)O)ccc1[O-].[68Ga+3] [[^68Ga]1c] is ____.
0.33 ± 0.03 % dose/g

Same for O=C([O-])CN(CCN(CC(=O)[O-])Cc1cc(CCC(=O)NC(P(=O)(O)O)P(=O)(O)O)ccc1[O-])Cc1cc(CCC(=O)NC2C(O)OC(CO)C(O)C2O)ccc1[O-].[68Ga+3] (centres unmarked) [[^68Ga]1b]
0.26 ± 0.04 % dose/g

* * *

Assay: In vivo biodistribution in mice
Design: species or system normal CD-1 male mice
Details: iv, 2 min post injection
Consider the following compounds and their measured Biodistribution: Bone readings.
In your response, put the unit directly after the numeric value.

Answered examples (2):
{"columns": ["COMPOUND", "RECORDED MEASUREMENT"],
 "data": [
  ["[18F-].[Na+] [[^18F]NaF, reference compound]", "10.8 ± 0.51 % dose/g"],
  ["O=C([O-])CN(CCN(CC(=O)[O-])Cc1cc(CCC(=O)NC(P(=O)(O)O)P(=O)(O)O)ccc1[O-])Cc1cc(CCC(=O)NCCCCCC(=O)NCCCC[C@H](NC(=O)N[C@@H](CCC(=O)O)C(=O)O)C(=O)O)ccc1[O-].[68Ga+3] [[^68Ga]1g]", "8.13 ± 1.87 % dose/g"]
]}

Now consider a different compound.
Fill blank: measured Biodistribution: Bone of the compound O=C([O-])CN(CCN(CC(=O)[O-])Cc1cc(CCC(=O)NC(P(=O)(O)O)P(=O)(O)O)ccc1[O-])Cc1cc(CCC(=O)O)ccc1[O-].[68Ga+3] [[^68Ga]1a] is ____.
8.60 ± 0.85 % dose/g
